Tested on: HBB locus
protocol.summary: Gene editing at the HBB locus in cord blood CD34+ HSCs (T7E1, DNA sequencing)
Format: cell-based, human
condition.info: CB CD34+, enhancer 18 hours before and 3 days after electroporation with D10A Cas9 RNP, HBB-8/HBB-15, Phx ssODN, UM171 35 nM, UM171/SR-1 35/40 nM, rapamycin 5 nM, OxPAPC 30 μg/mL, bafilomycin A1 1 μM, MG132 0.5 μM
Peptide text beside a SMILES is read from it. * marks the point of attachment. Cbz = O=C(OCc1ccccc1)*
recorded.endpoint: % NHEJ (%)
Kindly answer with a numeric value in %, unit omitted.

molecule	system.name	unit	% NHEJ
CO/C1=C\C(C)=C\[C@@H](C)[C@@H](O)[C@@H](C)C/C(C)=C/C=C/[C@H](OC)[C@@H]([C@@H](C)[C@@H](O)[C@H](C)[C@@]2(O)C[C@@H](O)[C@H](C)[C@@H](C(C)C)O2)OC1=O [Bafilomycin A1, reference compound]	HBB locus	%	18
CC(C)C[C@@H](C=O)NC(=O)[C@H](CC(C)C)NC(=O)[C@H](CC(C)C)NC(=O)OCc1ccccc1 [MG132, reference compound] (Cbz-Leu-Leu-Leu-aldehyde)	HBB locus	%	0
CO[C@H]1C[C@@H]2CC[C@@H](C)[C@@](O)(O2)C(=O)C(=O)N2CCCC[C@H]2C(=O)O[C@H]([C@H](C)C[C@@H]2CC[C@@H](O)[C@H](OC)C2)CC(=O)[C@H](C)/C=C(\C)[C@@H](O)[C@@H](OC)C(=O)[C@H](C)C[C@H](C)/C=C/C=C/C=C/1C [Rapamycin (sirolimus), Rapamycin, reference compound]	HBB locus	%	46

Pending molecule:
// recorded % NHEJ for Cn1nnc(-c2ccc3c(c2)[nH]c2nc(Cc4ccccc4)nc(N[C@H]4CC[C@H](N)CC4)c23)n1 : 79

Ref: patent US11390884B2
